For each entry below, report its solubility at 24 h value.
# experiment: Aqueous solubility of the compound in water at 2 mg after 24 hrs by HPLC analysis
# Format: physicochemical

Reported solubility at 24 h for `O=C(NCCN1CCOCC1)c1cc2c(o1)C(=O)c1ccccc1C2=O` : what is it?
< 70.6 µM

Reported solubility at 24 h for `CC(=O)c1cc2c(o1)C(=O)c1ccccc1C2=O` : what is it?
< 62.5 µM

Reported solubility at 24 h for `O=C1c2ccccc2C(=O)c2oc(C(=O)N3CCSCC3)cc21` : what is it?
< 76.5 µM

* * *

# Tested on: CT26
# experiment: Antiproliferative activity against mouse CT26 cells after 72 hrs by MTT assay
# Format: functional, cell-based
# experimentalConditions: CT26, 72 h
pIC50: −log10 of the molar value.
For each entry below, report its pIC50 value.

Reported pIC50 for `O=C(/C=C/c1ccc(-c2ccccc2)cc1)c1cc2c(o1)C(=O)c1ccccc1C2=O` : what is it?
< 5.00

Reported pIC50 for `O=C(/C=C/c1ccccc1)c1cc2c(o1)C(=O)c1ccccc1C2=O` : what is it?
< 5.00

Reported pIC50 for `O=C(/C=C/c1cccs1)c1cc2c(o1)C(=O)c1ccccc1C2=O` : what is it?
< 5.00

# credit: ChEMBL document CHEMBL4382247
